# credit: the RNAGym collection of RNA variant scans (doi:10.1101/gr.219683.116)

B1: mRNA-splicing (parent)
chain: AGUUGCUGCUGGGAGCUCCAGCACAGUGAAAUGGACAGAAGGGCAGAGCAA

Variants of: B1
TEST DETAILS: exon inclusion enrichment index; higher = more inclusion; WT1 exon 5 minigene, HEK293
Item-by-item account of exon inclusion enrichment index
MEASURED ATTRIBUTE: exon inclusion enrichment index

- VARIANT NAME: "C19U"
  ASSAY RESULT: 0.199
- VARIANT NAME: "C6A U7C C9A U10C A47C"
  ASSAY RESULT: 3.27
- VARIANT NAME: "C6A U7C C9A U10C A25G G26C"
  ASSAY RESULT: 4.03
- VARIANT NAME: "U3A C6A U7C C9A U10C"
  ASSAY RESULT: 3.37
- VARIANT NAME: "C6A U7A C9A U10A C16A U17C"
  ASSAY RESULT: 0.47
- VARIANT NAME: "C6A U7A C9A U10A G34U A35G"
  ASSAY RESULT: 0.134
- VARIANT NAME: "G5U G8U C9U A29G A30U"
  ASSAY RESULT: 0.0242
- VARIANT NAME: "G5U G8U C9U A25G G26A"
  ASSAY RESULT: 0.765
- VARIANT NAME: "G5A C6G U7G C9A G11U G12U"
  ASSAY RESULT: 0.000733
- VARIANT NAME: "G5A C6U U7A G8U C9A G15C C16A"
  ASSAY RESULT: 0.0446
- VARIANT NAME: "G5A C6G U7G C9A C16U"
  ASSAY RESULT: 0.000705
- VARIANT NAME: "G5A C6G U7G G8U C9A"
  ASSAY RESULT: 0.00192
- VARIANT NAME: "C6A U7C C9A U10C G11A G12U"
  ASSAY RESULT: 1.87
- VARIANT NAME: "G5C C6U G8C C9U U10C G43U C44G"
  ASSAY RESULT: 0.398
- VARIANT NAME: "G5A U7C G8A U10C G26U U27A"
  ASSAY RESULT: 1.08
- VARIANT NAME: "G5A C6G U7G C9A C18U"
  ASSAY RESULT: 0.000744
- VARIANT NAME: "G5C C6G U7C U10C C18A C19U"
  ASSAY RESULT: 0.321
- VARIANT NAME: "G5A U7C G8A U10C C19A A20C"
  ASSAY RESULT: 1.38
- VARIANT NAME: "G5A C6G U7G C9A U17A"
  ASSAY RESULT: 0.00695
- VARIANT NAME: "G5A U7C G8A U10C G13U A14G"
  ASSAY RESULT: 0.535
- VARIANT NAME: "G5C C6G U7C U10C U32G G33U"
  ASSAY RESULT: 1.88
- VARIANT NAME: "G5U G8U C9U G26A U27A"
  ASSAY RESULT: 0.24
- VARIANT NAME: "G5U C6A"
  ASSAY RESULT: 0.00655
- VARIANT NAME: "C6A U7A C9A U10A C16U U17C"
  ASSAY RESULT: 0.225
- VARIANT NAME: "G11A G12U"
  ASSAY RESULT: 0.888
- VARIANT NAME: "G5A U7C G8A U10C G33A"
  ASSAY RESULT: 0.235
- VARIANT NAME: "C6A U7C C9A U10C G21A C22G"
  ASSAY RESULT: 3.04
- VARIANT NAME: "C6A U7C C9A U10C U32A G33A"
  ASSAY RESULT: 2.07
- VARIANT NAME: "G5C C6G U7C U10C G33C"
  ASSAY RESULT: 3.55
- VARIANT NAME: "G2A C6A U7C C9A U10C"
  ASSAY RESULT: 4.19
- VARIANT NAME: "G5A U7C G8A U10C G48U"
  ASSAY RESULT: 2.83
- VARIANT NAME: "G33A G34U"
  ASSAY RESULT: 0.0122
- VARIANT NAME: "G5A U7C G8A G11C"
  ASSAY RESULT: 1.3
- VARIANT NAME: "G2C U3G C6A U7C C9A U10C"
  ASSAY RESULT: 3.19
- VARIANT NAME: "G5U G8U C9U G15C C16G"
  ASSAY RESULT: 0.179
- VARIANT NAME: "G5C C6U G8C C9U U10C G33U G34U"
  ASSAY RESULT: 0.282
- VARIANT NAME: "G5A C6G U7G C9A A23C"
  ASSAY RESULT: 0.00491
- VARIANT NAME: "G5U G8U C9U A23U C24A"
  ASSAY RESULT: 0.0491
- VARIANT NAME: "U4A"
  ASSAY RESULT: 0.00347
- VARIANT NAME: "C6A U7A C9A U10A G11C"
  ASSAY RESULT: 3.21
- VARIANT NAME: "G5C C6A U7C G8A U10A G33U G34A"
  ASSAY RESULT: 0.0098
- VARIANT NAME: "C6A U7C C9A U10C C44A A45C"
  ASSAY RESULT: 4.04
- VARIANT NAME: "G5A C6G U7G C9A G11C"
  ASSAY RESULT: 0.00307
- VARIANT NAME: "C6A U7A C9A U10A G21C"
  ASSAY RESULT: 0.86
- VARIANT NAME: "C6A U7C C9A U10C C24G A25C"
  ASSAY RESULT: 4.59
- VARIANT NAME: "G5U G8U C9U C44A A45G"
  ASSAY RESULT: 0.326
- VARIANT NAME: "C6A U7A C9A U10A G46C A47G"
  ASSAY RESULT: 1.23
- VARIANT NAME: "G5U G8U C9U U10A G11U"
  ASSAY RESULT: 0.0867
- VARIANT NAME: "C6A U7A C9A U10A G33A G34C"
  ASSAY RESULT: 0.0943
- VARIANT NAME: "G5U C9A"
  ASSAY RESULT: 0.991
- VARIANT NAME: "U4A G5U C6G U7C U10C"
  ASSAY RESULT: 1.96
- VARIANT NAME: "G5C C6U G8C C9U U10C G41A G42C"
  ASSAY RESULT: 2.67
- VARIANT NAME: "G5U C6G U7G G8U C9U"
  ASSAY RESULT: 0.0864
- VARIANT NAME: "C6A U7A C9A U10A C44A"
  ASSAY RESULT: 1.49
- VARIANT NAME: "G5U G8U C9U G28C A29G"
  ASSAY RESULT: 0.342
- VARIANT NAME: "G5C C6G U7C U10C A39C"
  ASSAY RESULT: 1.45
- VARIANT NAME: "C6A U7A C9A U10A G11A G12C"
  ASSAY RESULT: 2.24
- VARIANT NAME: "C24U A25U"
  ASSAY RESULT: 0.208
- VARIANT NAME: "G5C C6A U7C G8A U10A A25G G26C"
  ASSAY RESULT: 0.647
- VARIANT NAME: "G5C C6U G8C C9U U10C A14C G15U"
  ASSAY RESULT: 0.523
- VARIANT NAME: "G5A C6U U7A G8U C9A A23G C24U"
  ASSAY RESULT: 0.0127
- VARIANT NAME: "G5A C6G U7G C9A G21U C22A"
  ASSAY RESULT: 0.00074
- VARIANT NAME: "G5C C6G U7C U10C G46A A47C"
  ASSAY RESULT: 3.6
- VARIANT NAME: "A25U"
  ASSAY RESULT: 0.241
- VARIANT NAME: "G5A U7C G8A U10C U17A"
  ASSAY RESULT: 1.89
- VARIANT NAME: "G5C C6G U7C U10C A14G G15A"
  ASSAY RESULT: 2.07
- VARIANT NAME: "G5C C6A U7C G8A U10A G38U"
  ASSAY RESULT: 0.0342
- VARIANT NAME: "G5A C6G U7G C9A G13C A14C"
  ASSAY RESULT: 0.00967
- VARIANT NAME: "G5A C6U G8U C9U"
  ASSAY RESULT: 0.0357
- VARIANT NAME: "C6A U7A C9A U10A G43A"
  ASSAY RESULT: 2.02
- VARIANT NAME: "A31C U32C"
  ASSAY RESULT: 0.643
- VARIANT NAME: "G5C C6G U7C U10C A31C U32C"
  ASSAY RESULT: 3.85
- VARIANT NAME: "G5C C6A U7C G8A U10A C16U"
  ASSAY RESULT: 0.0868
- VARIANT NAME: "G5A C6G U7G C9A G38C A39U"
  ASSAY RESULT: 0.000965
- VARIANT NAME: "C6A U7A C9A U10A G34A A35G"
  ASSAY RESULT: 0.208
- VARIANT NAME: "G5C C6A U7C G8A U10A A39U A40U"
  ASSAY RESULT: 0.036
- VARIANT NAME: "G5A U7C G8A U10C U17G"
  ASSAY RESULT: 1.81
- VARIANT NAME: "C6A U7A C9A U10A A14U G15C"
  ASSAY RESULT: 0.336
- VARIANT NAME: "G2C U3A G5C C6A U7C G8A U10A"
  ASSAY RESULT: 0.0802
- VARIANT NAME: "G5A C6G U7G C9A U17A C18G"
  ASSAY RESULT: 0.00136
- VARIANT NAME: "G5A C6G U7G C9A A40G G41C"
  ASSAY RESULT: 0.0252
- VARIANT NAME: "C6A U7C C9A U10C A39U A40G"
  ASSAY RESULT: 1.39
- VARIANT NAME: "G5A C6G U7G C9A A23U C24G"
  ASSAY RESULT: 0.000949
- VARIANT NAME: "G5A C6U U7A G8U C9A G21C C22G"
  ASSAY RESULT: 0.197
- VARIANT NAME: "A39C A40C"
  ASSAY RESULT: 0.407
- VARIANT NAME: "G5C C6A U7C G8A C9A U10C"
  ASSAY RESULT: 1.81
- VARIANT NAME: "G5U G8U C9U A47C G48U"
  ASSAY RESULT: 0.134
- VARIANT NAME: "C6A U7C C9A U10C G34U A35U"
  ASSAY RESULT: 1.33
- VARIANT NAME: "G5A C6U U7A G8U C9A G21U C22G"
  ASSAY RESULT: 0.0561
- VARIANT NAME: "G5A C6G U7G C9A U32A G33C"
  ASSAY RESULT: 0.0011
- VARIANT NAME: "G5A U7C G8A U10C A31G U32C"
  ASSAY RESULT: 4.44
